tgt: recombinant human c-Met/HGF receptor (Homo sapiens, UniProt P08581)
Sequence (P08581 1078-1337): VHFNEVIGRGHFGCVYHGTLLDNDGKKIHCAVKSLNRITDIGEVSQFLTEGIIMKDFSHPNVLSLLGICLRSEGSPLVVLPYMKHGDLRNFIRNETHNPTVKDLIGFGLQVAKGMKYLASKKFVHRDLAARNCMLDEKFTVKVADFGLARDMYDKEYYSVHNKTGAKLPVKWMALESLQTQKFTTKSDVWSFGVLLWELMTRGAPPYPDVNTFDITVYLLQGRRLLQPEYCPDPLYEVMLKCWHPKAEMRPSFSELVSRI
method-notes: In vitro receptor tyrosine kinase assay, c-Met/HGF receptor (DELFIA)
pIC50: −log10 of the molar value.
We begin with a simple list: items and their reported pIC50.

smiles-repr | tgt | readout-kind | observed
C=CCN1CCN(C(=O)Nc2ccc(Oc3ccnc4cc(-c5cn(CC)cn5)sc34)c(F)c2)C1=O | recombinant human c-Met/HGF receptor (Homo sapiens, UniProt P08581) | pIC50 | > 6.60
Cn1ccnc1-c1cc2nccc(Oc3ccc(NC(=O)c4ncc(-c5ccccc5)s4)cc3F)c2s1 | recombinant human c-Met/HGF receptor (Homo sapiens, UniProt P08581) | pIC50 | < 6.00
Cn1ccnc1-c1cc2nccc(Oc3ccc(NC(=O)c4ccc(-c5ccccc5)cc4F)cc3F)c2s1 | recombinant human c-Met/HGF receptor (Homo sapiens, UniProt P08581) | pIC50 | > 6.60
CCn1cnc(-c2cc3nccc(Oc4ccc(N(C)C(=O)N5CCN(c6ccccc6)C5=O)cc4F)c3s2)c1 | recombinant human c-Met/HGF receptor (Homo sapiens, UniProt P08581) | pIC50 | 6.00 to 6.30
Cn1cnc(-c2cc3nccc(Oc4ccc(NC(=O)c5cnn(-c6ccccc6)c5C(F)(F)F)cc4F)c3s2)c1 | recombinant human c-Met/HGF receptor (Homo sapiens, UniProt P08581) | pIC50 | > 6.60
COC[C@H](C)NCc1cccc(-c2cc3nccc(Oc4ccc(NC(=O)N5CCN(c6ccccc6)C5=O)cc4F)c3s2)c1 | recombinant human c-Met/HGF receptor (Homo sapiens, UniProt P08581) | pIC50 | > 6.60

Simply: COCCN(C)C(=O)c1ccc(-c2cc3nccc(Oc4ccc(NC(=O)c5cnn(-c6ccccc6)c5C(F)(F)F)cc4F)c3s2)nc1 , recombinant human c-Met/HGF receptor (Homo sapiens, UniProt P08581), pIC50 = > 6.60

Simply: Cn1ccnc1-c1cc2nccc(Oc3ccc(NC(=O)c4cccc(-c5ccccc5)c4F)cc3F)c2s1 , recombinant human c-Met/HGF receptor (Homo sapiens, UniProt P08581), pIC50 = > 6.60
